# System: C2C12 myotubes
# settings: composite Z-score vs mock-treated (DMSO) wells; Conc 20 μM
Classes (Viability): bottom range (below 0.2), center range (0.2 to below 0.6), top range (0.6 or more)

Would you please look over these solved cases?
{"compound": "Cc1cc(O)c2c(O)c3c(O)cccc3cc2c1", "group": "bottom range"}
{"compound": "CC(=O)O[C@H]1C[C@@H](OC(C)=O)C(C)(C)[C@@H]2C[C@@H](OC(C)=O)[C@]3(C)[C@H](CC[C@@]4(C)[C@H](c5ccoc5)OC(=O)[C@H]5O[C@@]534)[C@@]12C", "group": "top range"}
{"compound": "CC1(C)C2CC(=O)O[C@@]3(C)C4=CC(=O)O[C@@H](c5ccoc5)[C@]4(C)CCC3[C@@]2(C)C=C[C@H]1O (some centres unmarked)", "group": "center range"}
{"compound": "COc1ccc2c(c1OC)OC[C@@H](c1ccc(OC)c(OC)c1OC)C2", "group": "top range"}
{"compound": "CC(=O)OC1CC2C(C)(C)[C@@H](O)CC[C@]2(C)C2CC[C@]3(C)[C@H](c4ccoc4)OC(=O)[C@H]4O[C@]43[C@]12C (stereo partly drawn) [3beta-hydroxydeoxodihydrogedunin]", "group": "bottom range"}

Q: For the record CC(=O)O[C@@H]1CC2C(C)(C)[C@H](O)C=C[C@]2(C)C2CC[C@@]3(C)[C@H](c4ccoc4)OC(=O)C4OC43[C@@]21C (some centres unmarked) , report the class its Viability corresponds to.
Ans: center range

Q: For the record CCC(C)C(=O)O[C@@H]1C[C@@]2(C)[C@H](c3ccoc3)OC(=O)CC23OC2(C)O[C@]14[C@]1(C)[C@@H](CC(=O)OC)C5(C)CC1(O)[C@](O)(C5OC(=O)C1(C)OC1C)[C@@H](OC(C)=O)[C@]34O2 (some centres unmarked) , report the class its Viability corresponds to.
Ans: top range

Q: For the record CC(=O)O[C@@H]1C[C@H]2C(C)(C)C(=O)CC[C@]2(C)[C@H]2CC[C@@]3(C)[C@H](c4ccoc4)OC(=O)[C@H]4O[C@]43[C@@]21C [dihydrogedunin] , report the class its Viability corresponds to.
Ans: top range

Q: For the record `CC(C)=CCOc1cc2oc(=O)ccc2cc1O` , report the class its Viability corresponds to.
Ans: top range

====

# Test system: cellular dehydrogenase activity
# settings: composite Z-score vs mock-treated (DMSO) wells; Conc 20 μM
Provide the recorded MTT for the entries that follow.

{"compound": "CCC(=O)OC1[C@@H]2CC3=C4CC(=O)O[C@@H](c5ccoc5)[C@]4(C)CCC3[C@@](C)(C2=O)[C@@H](CC(=O)OC)C1(C)C (stereo partly shown) [khayasin C]", "MTT": "−1.678"}
{"compound": "COC(=O)[C@@]1(C)CCC[C@]2(C)c3ccc(O)c(C(C)C)c3CCC12 (stereo partly shown) [totarol-19-carboxylic acid, methyl ester]", "MTT": 1.019}
{"compound": "CC(=O)O[C@H]1C[C@@H](OC(C)=O)C(C)(C)C2C[C@@H](O)[C@]3(C)C(CC[C@@]4(C)[C@H](c5ccoc5)OC(=O)[C@H]5O[C@]543)[C@]21C (stereo partly shown) [7-deacetylkhivorin]", "MTT": 0.608}

Lab note: next compound to report on.
Q: Report its MTT with cellular dehydrogenase activity as the test system: C=C(C)[C@H]1COc2cc3oc(=O)ccc3cc2O1 [obliquin]
Ans: −0.268
